Subject Of Test: human full-length glucocorticoid receptor (Homo sapiens, UniProt P04150)
Construct: a cell lysate containing recombinantly expressed human full-length glucocorticoid receptor; purchased PanVera Co., Madison, Wis; P2816
Sequence (P04150 whole entry): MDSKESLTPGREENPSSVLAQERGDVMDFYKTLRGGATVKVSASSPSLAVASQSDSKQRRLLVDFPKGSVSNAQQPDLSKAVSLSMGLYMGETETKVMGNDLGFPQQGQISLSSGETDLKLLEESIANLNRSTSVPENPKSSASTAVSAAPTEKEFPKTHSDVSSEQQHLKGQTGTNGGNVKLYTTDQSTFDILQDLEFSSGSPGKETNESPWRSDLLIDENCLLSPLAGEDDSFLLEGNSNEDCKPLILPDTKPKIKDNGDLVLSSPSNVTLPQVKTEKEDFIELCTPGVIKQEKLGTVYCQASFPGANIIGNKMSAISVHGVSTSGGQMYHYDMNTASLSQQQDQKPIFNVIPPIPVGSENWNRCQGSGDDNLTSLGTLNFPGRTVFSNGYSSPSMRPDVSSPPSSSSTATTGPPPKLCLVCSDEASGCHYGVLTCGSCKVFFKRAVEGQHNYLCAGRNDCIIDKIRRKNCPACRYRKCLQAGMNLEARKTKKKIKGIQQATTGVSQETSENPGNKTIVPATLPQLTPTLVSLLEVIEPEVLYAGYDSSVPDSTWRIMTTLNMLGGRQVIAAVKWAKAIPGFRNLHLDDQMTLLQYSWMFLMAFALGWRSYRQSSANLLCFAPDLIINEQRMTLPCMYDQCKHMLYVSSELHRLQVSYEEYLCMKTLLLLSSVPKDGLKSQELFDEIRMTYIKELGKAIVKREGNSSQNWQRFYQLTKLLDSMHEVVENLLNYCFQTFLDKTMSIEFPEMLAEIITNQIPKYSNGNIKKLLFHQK
Assay Method Text: Glucocorticoid Receptor Binding Assay (II), fluorescence polarization competitor kit (Fluormone GS1)
Experimental Conditions: cell lysate with recombinant human full-length GR, 1 nM Fluormone GS1, FP
Okay, here is how we bin by Ki: category 1 = under 2 nM, category 2 = from 2 nM up to 4 nM, category 3 = 4 nM and over

-- ask Given CC(C)(C(=O)NC1CCCC1O)C(Cc1ccccc1)c1ccc2c(cnn2-c2ccc(F)cc2)c1 (single isomer, unassigned) [Example 124-isomerD] , name the class its Ki places it in.
-- reply category 1

-- ask How about this compound: CC(C)(C(=O)Nc1nccs1)C(c1cccc(F)c1)c1ccc2c(cnn2-c2ccc(F)cc2)c1 (stereo not drawn) [Example 43]
-- reply category 2

-- ask Another compound to check: Cc1ccc(CC(c2ccc3c(cnn3-c3ccc(F)cc3)c2)C(C)(C)C(=O)Nc2nncs2)cc1 (stereo not drawn) [Example 127]
-- reply category 2

-- ask What do you have for CC(C)(C(=O)NC1CC1)C(Cc1ccccc1)c1ccc2c(cnn2-c2ccc(F)cc2)c1 (stereo not drawn) [Example 128] ?
-- reply category 1

-- ask CC(C)(C(=O)NC1CCCC1)C(Cc1ccccc1)c1ccc2c(cnn2-c2ccc(F)cc2)c1 (single isomer, unassigned) [Example 131] ?
-- reply category 2

-- ask Follow-up entry: O=C(Nc1nncs1)C(c1ccccc1)C(c1ccccc1)c1ccc2[nH]ncc2c1 (single isomer, unassigned) [152-diast B]
-- reply category 3

-- ask And for CC(C)(C(=O)NC1CCOCC1)C(Cc1ccccc1)c1ccc2c(cnn2-c2ccc(F)cc2)c1 (stereo not drawn) [Example 132] ?
-- reply category 3

-- ask And what about the compound CC(C)(CC(=O)Nc1nncs1)c1ccc2c(cnn2-c2ccc(F)cc2)c1 [Example 122] ?
-- reply category 2

-- ask Request: CC(C)(C(=O)Nc1nncs1)C(c1ccc(F)cc1)c1ccc2c(cnn2-c2ccc(F)cc2)c1 (stereo not drawn) [Example 53]
-- reply category 1
